# Protocol Summary: Timed organ biodistribution of [^64Cu]Cu-DOTATATE by ex vivo gamma counting
# Format: in vivo, mice
# Stated Conditions: mouse, pancreas, intravenous, 1.85 MBq, total radioactivity; female Apoe^-/- mice 12 weeks on Western Diet, 30 min after injection, median (IQR), N=3-8; read-out: Tissue radioactivity, pancreas

{"Molecule": "C[C@@H](O)[C@H](NC(=O)[C@@H]1CSSC[C@H](NC(=O)[C@@H](Cc2ccccc2)NC(=O)CN2CCN(CC(=O)O)CCN(CC(=O)O)CCN(CC(=O)O)CC2)C(=O)N[C@@H](Cc2ccc(O)cc2)C(=O)N[C@H](Cc2c[nH]c3ccccc23)C(=O)N[C@@H](CCCCN)C(=O)N[C@@H]([C@@H](C)O)C(=O)N1)C(=O)O [[^64Cu]Cu-DOTATATE, metal not drawn]", "Readout Units": "%ID/g", "tissue uptake at 0.5 h": 3.4}

----------
# Protocol Summary: Timed organ biodistribution of [^64Cu]Cu-DOTATATE by ex vivo gamma counting
# Assay type: in vivo, mice
# Stated Conditions: mouse, abdominal aorta, intravenous, 1.85 MBq, total radioactivity; female Apoe^-/- mice 12 weeks on Western Diet, 120 min after injection, median (IQR), N=3-8; read-out: Tissue radioactivity, abdominal aorta
Measured Quantity: tissue uptake at 2 h (%ID/g)

{"Compound": "C[C@@H](O)[C@H](NC(=O)[C@@H]1CSSC[C@H](NC(=O)[C@@H](Cc2ccccc2)NC(=O)CN2CCN(CC(=O)O)CCN(CC(=O)O)CCN(CC(=O)O)CC2)C(=O)N[C@@H](Cc2ccc(O)cc2)C(=O)N[C@H](Cc2c[nH]c3ccccc23)C(=O)N[C@@H](CCCCN)C(=O)N[C@@H]([C@@H](C)O)C(=O)N1)C(=O)O [[^64Cu]Cu-DOTATATE, metal not drawn]", "Meas Value": 2.1}

----------
# Protocol Summary: Timed organ biodistribution of [^64Cu]Cu-DOTATATE by ex vivo gamma counting
# Assay type: in vivo, mice
# Stated Conditions: mouse, aortic arch, intravenous, 1.85 MBq, total radioactivity; female C57BL/6 mice, 30 min after injection, median (IQR), N=3-7; read-out: Tissue radioactivity, aortic arch

{"Compound": "C[C@@H](O)[C@H](NC(=O)[C@@H]1CSSC[C@H](NC(=O)[C@@H](Cc2ccccc2)NC(=O)CN2CCN(CC(=O)O)CCN(CC(=O)O)CCN(CC(=O)O)CC2)C(=O)N[C@@H](Cc2ccc(O)cc2)C(=O)N[C@H](Cc2c[nH]c3ccccc23)C(=O)N[C@@H](CCCCN)C(=O)N[C@@H]([C@@H](C)O)C(=O)N1)C(=O)O [[^64Cu]Cu-DOTATATE, metal not drawn]", "tissue uptake at 0.5 h [%ID/g]": 1.1}

----------
# Protocol Summary: In vivo PET/CT of vascular inflammation in atherosclerotic mice
# Stated Conditions: female, mouse, ascending aorta, iv, 5.55 MBq, total radioactivity, Apoe^−/− mice 12 weeks on Western Diet, tracer circulated 60 min, median, N = 4, read-out: SUVmax ascending aorta

{"Compound": "C[C@@H](O)[C@H](NC(=O)[C@@H]1CSSC[C@H](NC(=O)[C@@H](Cc2ccccc2)NC(=O)CN2CCN(CC(=O)O)CCN(CC(=O)O)CCN(CC(=O)O)CC2)C(=O)N[C@@H](Cc2ccc(O)cc2)C(=O)N[C@H](Cc2c[nH]c3ccccc23)C(=O)N[C@@H](CCCCN)C(=O)N[C@@H]([C@@H](C)O)C(=O)N1)C(=O)O [[^64Cu]Cu-DOTATATE, metal not drawn]", "SUV at 1 h": "1.1 SUV"}

# credit: paper PMC9007951
